# methodNotes: Clearance in Sprague-dawley rat at 3 mg/kg, iv by LC-MS/MS analysis
# Assay type: ADME, organism-based
# settings: in vivo
assayEndpoint: clearance (mL/min/kg)
Your answer is read as mL/min/kg, so omit the unit and give the number.

Which clearance is listed for Nc1ncc(-c2ccc(C(=O)N3CCC(O)CC3)cc2)nc1-c1ccc(C(F)(F)F)cc1 ? 7.1

* * *

For each record, write down the corresponding solubility thermodynamic at 2 h.
# methodNotes: Aqueous solubility of compound in pH 2 0.01M HCl incubated for 2 hrs under shaking condition by shake-flask method based HPLC-DAD analysis
# Format: physicochemical
Your answer is read as µM, so omit the unit and give the number.

Which solubility thermodynamic at 2 h is listed for CN1CCCN(C(=O)c2ccc(-c3cnc(N)c(-c4ccc(C(F)(F)F)cc4)n3)cc2)CC1 ? 200

Now the compound CS(=O)(=O)c1ccc(-c2cnc(N)c(-c3ccc(N)nc3)n2)cc1 206

Now the compound CNC(=O)c1ccc(-c2nc(-c3ccc(C(N)=O)cc3)cnc2N)cc1 186

Now the compound Nc1ncc(-c2ccc(C(=O)N3CCC(N)CC3)cc2)nc1-c1ccc(C(F)(F)F)nc1 200

Now the compound Nc1ncc(-c2ccc(C(=O)N3CCC(N)C3)cc2)nc1-c1ccc(C(F)(F)F)cc1 (centres undefined) 165

Now the compound Nc1ncc(-c2ccc(C(=O)N3CCC(N)CC3)cc2)nc1-c1ccc(C(F)(F)F)cc1 200

Now the compound NC(=O)c1ccc(-c2cnc(N)c(-c3ccc(C(F)(F)F)nc3)n2)nc1 123

Now the compound CN1CCCN(C(=O)c2ccc(-c3cnc(N)c(-c4ccc(C(F)(F)F)nc4)n3)cc2)CC1 200

Now the compound Nc1ncc(-c2ccc(C(=O)N3CCC(O)C3)cc2)nc1-c1ccc(C(F)(F)F)cc1 (centres undefined) 129

* * *

# methodNotes: Oral bioavailability in Sprague-dawley rat at 15 mg/kg by LC-MS/MS analysis
# Format: ADME, organism-based
# settings: in vivo
assayEndpoint: bioavailability (%)
Your answer is read as %, so omit the unit and give the number.

Which bioavailability is listed for Nc1ncc(-c2ccc(C(=O)O)cc2)nc1-c1ccc(C(F)(F)F)cc1 ? 94

* * *

# methodNotes: Cmax(app) in NMRI mouse plasma infected with Plasmodium berghei ANKA at 3 mg/kg, po qd for 4 consecutive days and measured post last dose
# Type: ADME, organism-based
# settings: time 4 day
assayEndpoint: Cmax (µM)
Your answer is read as µM, so omit the unit and give the number.

Which Cmax is listed for Nc1ncc(-c2ccc(C(=O)O)cc2)nc1-c1ccc(C(F)(F)F)cc1 ? 5

Now the compound Nc1ncc(-c2ccc(C(=O)N3CC[C@@H](O)C3)cc2)nc1-c1ccc(C(F)(F)F)cc1 3.29

Now the compound NC(=O)c1ccc(-c2cnc(N)c(-c3ccc(C(F)(F)F)nc3)n2)cc1 5

Now the compound Nc1ncc(-c2ccc(C(=O)O)cc2)nc1-c1ccc(C(F)(F)F)nc1 2.29

Now the compound CC(C)(C)N1CCN(C(=O)c2ccc(-c3cnc(N)c(-c4ccc(C(F)(F)F)nc4)n3)cc2)CC1 1.52

Now the compound Nc1ncc(-c2ccc(C(=O)N3CCNCC3)cc2)nc1-c1ccc(C(F)(F)F)cc1 0.4

Now the compound Nc1ncc(-c2ccc(C(=O)N3CCC(O)C3)cc2)nc1-c1ccc(C(F)(F)F)cc1 (centres undefined) 3.61

Now the compound CN1CCN(C(=O)c2ccc(-c3cnc(N)c(-c4ccc(C(F)(F)F)cc4)n3)cc2)CC1 1.6

Now the compound NC(=O)c1ccc(-c2cnc(N)c(-c3ccc(C(F)(F)F)cc3)n2)cc1 4

* * *

For each record, write down the corresponding Vd.
# methodNotes: Volume of distribution in Sprague-dawley rat at 5 mg/kg, iv by LC-MS/MS analysis
# Assay type: ADME, organism-based
# settings: in vivo
Your answer is read as L/kg, so omit the unit and give the number.

Which Vd is listed for Nc1ncc(-c2ccc(C(=O)N3CCNCC3)cc2)nc1-c1ccc(C(F)(F)F)cc1 ? 5.5

Now the compound Nc1ncc(-c2ccc(C(=O)N3CC[C@@H](O)C3)cc2)nc1-c1ccc(C(F)(F)F)cc1 8.2

Now the compound Nc1ncc(-c2ccc(C(=O)N3CC(O)C3)cc2)nc1-c1ccc(C(F)(F)F)cc1 5.7

* * *

# methodNotes: Volume of distribution in Sprague-dawley rat at 3 mg/kg, iv by LC-MS/MS analysis
# Type: ADME, organism-based
# settings: in vivo
assayEndpoint: Vd (L/kg)
Your answer is read as L/kg, so omit the unit and give the number.

Which Vd is listed for Nc1ncc(-c2ccc(C(=O)N3CCC(O)CC3)cc2)nc1-c1ccc(C(F)(F)F)cc1 ? 5.1

* * *

# System: Plasmodium falciparum
# methodNotes: microbe, parasite or virus in culture
# settings: NF54, Erythrocyte
# Description: Antiplasmodial activity against multidrug-sensitive Plasmodium falciparum NF54 infected in human erythrocytes assessed as reduction in [3H]hypoxanthine incorporation preincubated for 48 hrs followed by [3H]hypoxanthine addition and measured after 24 hrs by liquid scintillation counting method
pIC50: −log10 of the molar value.
// Not satisfied strictly below 8 in pIC50; Satisfied otherwise

For this compound, is measured pIC50 8 or higher? CS(=O)(=O)c1ccc(-c2cnc(N)c(-c3ccc(N)nc3)n2)cc1 Not satisfied

Now the compound C[C@H]1[C@H](OC(=O)CCC(=O)O)O[C@@H]2O[C@@]3(C)CC[C@H]4[C@H](C)CC[C@@H]1[C@@]24OO3 [ARTESUNATE] Satisfied

Now the compound COC(=O)c1ccc(-c2cnc(N)c(-c3ccc(C(F)(F)F)cc3)n2)cc1 Not satisfied

Now the compound NC(=O)c1ccc(-c2cnc(N)c(-c3ccc(C(F)(F)F)nc3)n2)cc1 Not satisfied

Now the compound N#Cc1ccc(-c2cnc(N)c(-c3ccc(N)nc3)n2)cc1 Not satisfied

Now the compound Nc1ncc(-c2ccc(C(=O)N3CCC(O)CC3)cc2)nc1-c1ccc(C(F)(F)F)cc1 Satisfied

Now the compound Nc1ncc(-c2ccc(C(=O)N3CCC(N)C3)cc2)nc1-c1ccc(C(F)(F)F)cc1 (centres undefined) Not satisfied

Now the compound Nc1ncc(-c2ccc(C(=O)N3CCC(N)CC3)cc2)nc1-c1ccc(C(F)(F)F)nc1 Not satisfied

Now the compound NC(=O)c1ccc(-c2cnc(N)c(-c3ccc(C(F)(F)F)nc3)n2)nc1 Not satisfied

Now the compound Nc1ncc(-c2ccc(C(=O)O)cc2)nc1-c1ccc(C(F)(F)F)cc1 Not satisfied

Now the compound Nc1ncc(-c2ccc(C(=O)N3CCNCC3)cc2)nc1-c1ccc(C(F)(F)F)cc1 Satisfied

* * *

# System: Plasmodium falciparum
# methodNotes: microbe, parasite or virus in culture
# settings: NF54, Erythrocyte
assayEndpoint: IC50 (nM)
Your answer is read as nM, so omit the unit and give the number.

Which IC50 is listed for Nc1ccc(-c2nc(-c3ccc(S(=O)(=O)C4CC4)cc3)cnc2N)cn1 ? 38

Now the compound Nc1ncc(-c2ccc(C(=O)N3CCC(N)CC3)cc2)nc1-c1ccc(C(F)(F)F)cc1 10

Now the compound CC(C)(C)N1CCN(C(=O)c2ccc(-c3cnc(N)c(-c4ccc(C(F)(F)F)cc4)n3)cc2)CC1 17

Now the compound Nc1ncc(-c2ccc(C(=O)N3CC[C@@H](O)C3)cc2)nc1-c1ccc(C(F)(F)F)cc1 22

* * *

# methodNotes: Aqueous solubility of compound in pH 6.5 PBS incubated for 2 hrs under shaking condition by shake-flask method based HPLC-DAD analysis
# Format: physicochemical
// Not fulfilled strictly below 100 µM in solubility thermodynamic at 2 h; Fulfilled otherwise

For this compound, is measured solubility thermodynamic at 2 h 100 µM or higher? CC(C)(C)N1CCN(C(=O)c2ccc(-c3cnc(N)c(-c4ccc(C(F)(F)F)nc4)n3)cc2)CC1 Fulfilled

Now the compound Nc1ccc(-c2nc(-c3ccc(C(=O)N4CCNCC4)cc3)cnc2N)cn1 Fulfilled

Now the compound CN1CCCN(C(=O)c2ccc(-c3cnc(N)c(-c4ccc(C(F)(F)F)nc4)n3)cc2)CC1 Not fulfilled

Now the compound Nc1ncc(-c2ccc(C(=O)N3CCC(N)CC3)cc2)nc1-c1ccc(C(F)(F)F)cc1 Not fulfilled

Now the compound Nc1ccc(-c2nc(-c3ccc(S(=O)(=O)C4CC4)cc3)cnc2N)cn1 Not fulfilled

Now the compound Nc1ncc(-c2ccc(C(=O)N3CCC(O)C3)cc2)nc1-c1ccc(C(F)(F)F)nc1 (stereo not drawn) Fulfilled

Now the compound Nc1ncc(-c2ccc(C(=O)N3CCNCC3)cc2)nc1-c1ccc(C(F)(F)F)nc1 Fulfilled

Now the compound Nc1ncc(-c2ccc(C(=O)N3CCCNCC3)cc2)nc1-c1ccc(C(F)(F)F)nc1 Fulfilled

Now the compound CC(C)(C)N1CCN(C(=O)c2ccc(-c3cnc(N)c(-c4ccc(C(F)(F)F)cc4)n3)cc2)CC1 Not fulfilled

Now the compound Nc1ncc(-c2ccc(C(=O)N3CCC(N)C3)cc2)nc1-c1ccc(C(F)(F)F)nc1 (stereo not drawn) Fulfilled

Now the compound NC(=O)c1ccc(-c2cnc(N)c(-c3ccc(C(F)(F)F)cc3)n2)cc1 Not fulfilled

Now the compound Nc1ncc(-c2ccc(C(=O)N3CC[C@@H](O)C3)cc2)nc1-c1ccc(C(F)(F)F)cc1 Not fulfilled

Now the compound Nc1ncc(-c2ccc(C(=O)N3CCC(N)CC3)cc2)nc1-c1ccc(C(F)(F)F)nc1 Fulfilled

Now the compound Nc1ccc(-c2cnc(N)c(-c3ccc(C(F)(F)F)nc3)n2)cn1 Not fulfilled

Now the compound Nc1ncc(-c2ccc(C(=O)N3CCC(O)C3)cc2)nc1-c1ccc(C(F)(F)F)cc1 (stereo not drawn) Not fulfilled

Now the compound Nc1ncc(-c2ccc(C(=O)O)cc2)nc1-c1ccc(C(F)(F)F)nc1 Fulfilled

Now the compound Nc1ncc(-c2ccc(C(=O)N3CCCNCC3)cc2)nc1-c1ccc(C(F)(F)F)cc1 Fulfilled

Now the compound Nc1ncc(-c2ccc(C(=O)N3CCC(O)CC3)cc2)nc1-c1ccc(C(F)(F)F)cc1 Not fulfilled

Now the compound COC(=O)c1ccc(-c2cnc(N)c(-c3ccc(C(F)(F)F)cc3)n2)cc1 Not fulfilled

Now the compound CN1CCN(C(=O)c2ccc(-c3cnc(N)c(-c4ccc(C(F)(F)F)nc4)n3)cc2)CC1 Fulfilled

Now the compound CNC(=O)c1ccc(-c2nc(-c3ccc(C(N)=O)cc3)cnc2N)cc1 Fulfilled

Now the compound NC(=O)c1ccc(-c2cnc(N)c(-c3ccc(C(F)(F)F)nc3)n2)cn1 Not fulfilled

Now the compound CN1CCCN(C(=O)c2ccc(-c3cnc(N)c(-c4ccc(C(F)(F)F)cc4)n3)cc2)CC1 Fulfilled
